- EXPERIMENTAL TARGET: Heat shock protein HSP90 (Homo sapiens, UniProt P07900+P08238)
- METHOD SUMMARY: Binding affinity to recombinant human N-terminal truncated HSP90 (9 to 236 residues) expressed in Escherichia coli BL21 (DE3) assessed as on rate constant by biolayer interferometry assay
Calls of active or inactive are those of the source. No cut-off for these calls is given here.
MEASUREMENT NAME: K

Recorded results for 4 molecules are shown here.
>>> df
                           smiles_structure  measurement_name    meas_value
0  O=S(=O)(Nc1ccc(Nc2ccnc(N3CCNCC3)n2)cc1)c1ccc(Cl)cc1                 K      inactive
1  O=S(=O)(Nc1ccc(Nc2ccnc(N3CCNCC3)n2)cc1)c1ccc(OC(F)(F)F)cc1                 K      inactive
2  O=S(=O)(Nc1ccc(Nc2ccnc(N3CCNCC3)n2)cc1)c1ccc(OCc2ccccc2)cc1                 K      inactive
3  CCOC(=O)c1ccc(S(=O)(=O)Nc2ccc(Nc3ccnc(N4CCNCC4)n3)cc2)cc1.Cl                 K  3.55 10^4/Ms

Moving on to the next molecule.
# K lookup, item Cl.O=S(=O)(Nc1ccc(Nc2ccnc(N3CCNCC3)n2)cc1)c1ccc2c(c1)CCC2 3.54 10^4/Ms
